These measurements were taken from PubChem BioAssay.

# method summary: change in splice reporter luminescence, either direction, cell-based, HEK293, spliceosome inhibition project, primary screen (AID 1101);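 note: HEK293 cells carrying a splicing-competent luciferase reporter gene; test concentration not given here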
# recorded conditions: HEK293 splicing luciferase reporter, 24 h, higher = more signal, called active from +8 up or from −8 down
Assign z-score to each entry below.
Give bare numbers.

C=C(CCCC)/C(=C/C[C@@H](OC(C)=O)c1ccccc1OCCO)c1cc(C(=O)OC)ccc1OC : -0.5

Batch lookup, z-score per entry.
1. COc1ccccc1CN1C(=O)c2ccccc2[C@@H](C(=O)NCc2ccccc2)[C@@H]1c1ccc(CO)cc1
2. CC(C)(C)OC(=O)CC[C@]1(C(N)=O)N=C(c2ccc(OCCCO)cc2)O[C@H]1c1ccccc1
3. Cc1ccc(S(=O)(=O)N2C[C@@H](C(=O)O)[C@H](Sc3ccccc3)C[C@H]2c2ccccc2)cc1
4. CC(C)NC(=O)[C@@H]1c2ccccc2C(=O)N(C(C)C)[C@H]1c1ccc(CO)cc1
5. CCOC(=O)C[C@H]1[C@H](OC(=O)c2cc3ccccc3oc2=O)[C@@H](NC(=O)CC(C)C)c2cc(OCCCO)ccc2N1C(=O)c1ccccc1
6. O=C(CS)NCCCCCNC(=O)[C@H]1C[C@H]2C(=O)NCC(=O)N2[C@H]1c1cccc(OCCO)c1

1. -0.263
2. 0.138
3. 1.64
4. -0.0664
5. -1.04
6. -0.957

Batch lookup, z-score per entry.
1. COC(=O)[C@]1(CCC(=O)OC(C)(C)C)N=C(c2ccc(OCCCO)cc2)O[C@@H]1c1ccccc1
2. CO[C@H]1O[C@H](CO)[C@@H](OC(=O)Nc2ccccc2)[C@@H]2OC(=O)[C@@H](Cc3ccc4ccccc4c3)C/C=C/C[C@H](Cc3ccc4ccccc4c3)C(=O)O[C@@H]12
3. COc1ccc(NN2C(C(O)c3ccc(N(C)C)cc3)C=CC3C(=O)N(C4CCCCC4)C(=O)C32)cc1 (centres undefined)
4. NCCCCCCNC(=O)[C@H]1C[C@H]2C(=O)N[C@@H](Cc3ccccc3)C(=O)N2[C@H]1c1cccc(OCCO)c1
5. COc1ccc([Si](C)(C)[C@H]2[C@H](CCn3cc([C@H](O)c4ccccc4)nn3)O[C@@]3(C(=O)N(C)c4ccccc43)[C@@H]2C)cc1
6. COC(=O)c1c(CC[C@@H](CO)NC(=O)N[C@H](Cc2ccccc2)Cn2cc(-c3ccccn3)nn2)oc(C(C)=O)c1C(=O)OC
7. COc1ccc(CCNC(=O)[C@@]2(C)c3ccccc3C(=O)N(c3ccc(C)cn3)[C@H]2c2ccc(CO)cc2)cc1

1: -0.783; 2: -0.916; 3: -0.438; 4: -0.895; 5: 1.11; 6: 1.01; 7: 0.981

* * *

# measurement target: Torsin-1A-interacting protein 2 (Homo sapiens) (UniProt Q8NFQ8)
# Sequence (Q8NFQ8 whole entry, looked up): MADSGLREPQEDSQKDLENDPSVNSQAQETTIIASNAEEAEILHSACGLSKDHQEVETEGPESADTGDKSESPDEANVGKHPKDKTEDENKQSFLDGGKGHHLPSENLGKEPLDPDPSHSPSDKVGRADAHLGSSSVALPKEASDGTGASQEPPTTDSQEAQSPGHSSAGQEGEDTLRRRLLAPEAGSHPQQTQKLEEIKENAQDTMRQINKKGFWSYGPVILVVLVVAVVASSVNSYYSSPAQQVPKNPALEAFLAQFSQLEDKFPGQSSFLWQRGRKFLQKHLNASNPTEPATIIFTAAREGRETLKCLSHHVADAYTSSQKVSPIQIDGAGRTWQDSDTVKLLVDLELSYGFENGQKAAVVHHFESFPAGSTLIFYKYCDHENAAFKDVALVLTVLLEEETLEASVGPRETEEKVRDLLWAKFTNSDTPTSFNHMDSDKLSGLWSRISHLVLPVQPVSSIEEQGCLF
# method summary: small molecules binding lysate-expressed LULL1 – cell lysate, human LULL1 lysate, 635/667 nm fluorescence, primary screen (AID 1092);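 note: probe is lysate of COS7 cells overexpressing human LULL1; score merges per-feature 667 nm fluorescence with signal-to-noise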
# recorded conditions: small-molecule microarray, hLULL1 lysate binding, 635 nm fluorescence; higher = more signal
Assign yes (1) to entries whose composite z-score meets or exceeds 2; assign no (0) to the rest.

C=CCNC(=O)[C@@H]1[C@H]2C(=O)O[C@H](c3ccccc3)[C@H](c3ccccc3)N2[C@H](c2ccc(OCCO)cc2)[C@@]12C(=O)N(C(=O)OCCOC)c1ccc(C#CCC(C(=O)OC)C(=O)OC)cc12 : yes (1)
COCCCNC(=O)[C@@H]1c2ccccc2C(=O)N(Cc2ccccc2)[C@H]1c1ccc(CO)cc1 : no (0)

Would you say COC(=O)[C@@]1(Cc2ccc(F)cc2)[C@H]2c3cc(C(=O)N(C)C)n(Cc4cc(C)n(C)n4)c3C[C@H]2CN1C(=O)c1ccccc1 shows composite z-score at minimum 2?
yes (1)

Would you say CCOc1ccc(N2C(=O)CSC2c2cccc([N+](=O)[O-])c2)cc1 (configuration not stated) shows composite z-score at minimum 2?
no (0)

Would you say CC1CC/C=C\[C@H]2OC34C=CCN(Cn5nnc6ccccc65)C(=O)[C@H]3N(CCCCCO)C(=O)[C@@H]4C2C(=O)O1 (some centres not stated) shows composite z-score at minimum 2?
yes (1)

Would you say CN(C)CCCCNC(=O)[C@@H]1C[C@@H]2C(=O)N[C@@H](CCCCN)C(=O)N2[C@@H]1c1ccc(O)cc1 shows composite z-score at minimum 2?
no (0)

Would you say C=CC[C@@]1(C(=O)N2CCCCC2)N=C(c2ccc(OCCCO)cc2)O[C@@H]1c1ccccc1N=[N+]=[N-] shows composite z-score at minimum 2?
yes (1)

Would you say CN1C(=O)C2C=CC(C(O)C=Cc3ccc([N+](=O)[O-])cc3)N(Nc3ccccc3)C2C1=O (configuration not stated) shows composite z-score at minimum 2?
no (0)

* * *

# method summary: growth of efflux-deficient E. coli DRC39 – strain DRC39, OD650, 24 h, E. coli filamentation inducers, primary screen (AID 1178);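 note: growth measured as culture turbidity by optical density at 650 nm; test concentration not given here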
# recorded conditions: E. coli DRC39 acrAB, higher = more signal, called active from +8 up or from −8 down
Assign Satisfied to entries whose z-score meets or exceeds 0.2; assign Not satisfied to the rest.

COc1ccc(-c2cc3c(c(Cc4ccccc4)n2)[Si](C(C)C)(C(C)C)OC3)cn1 : Not satisfied
C=CC[C@]1(C(N)=O)COC(c2ccc(OCCCO)cc2)=N1 : Satisfied
O=C1O[C@@H](c2ccccc2)[C@@H](c2ccccc2)N2[C@@H](c3ccccc3OCCO)[C@]3(C(=O)Nc4ccccc43)[C@@H](C(=O)O)[C@H]12 : Not satisfied

Would you say [N-]=[N+]=Nc1ccccc1C[C@]1(C(=O)NCC(O)CO)N=C(c2ccc(OCCCO)cc2)O[C@H]1c1ccccc1 (stereo partly drawn) shows z-score at minimum 0.2?
Not satisfied

Would you say COC(=O)[C@@]1(Cc2ccc(F)cc2)[C@H]2c3cc(C(=O)N(C)C)n(Cc4cc(C)n(C)n4)c3C[C@H]2CN1C(=O)c1ccccc1 shows z-score at minimum 0.2?
Not satisfied

Would you say CC(C)[Si](C#C[Si](C(C)C)(C(C)C)C(C)C)(O[C@H](C)c1cn(Cc2ccccc2)nn1)C(C)C shows z-score at minimum 0.2?
Not satisfied

Would you say COC(=O)[C@@]1(Cc2ccc(OC)cc2)[C@H]2c3cc(C(=O)N(C)C)n(Cc4ccc(C(F)(F)F)nc4)c3C[C@H]2CN1C(=O)c1ccccc1 shows z-score at minimum 0.2?
Not satisfied

Would you say C[N+](C)(C)CCCC[C@@H]1NC(=O)[C@@H]2C[C@H](C(=O)NCCCCCCNC(=O)CS)[C@H](c3ccc(O)cc3)N2C1=O shows z-score at minimum 0.2?
Not satisfied

Would you say C=C(/C(=C/C[C@H](OC(=O)c1ccncc1)c1ccc(OCCO)cc1)c1cc(C(=O)OC)ccc1OC)C(C)C shows z-score at minimum 0.2?
Not satisfied

* * *

# measurement target: Dihydroorotate dehydrogenase (quinone), mitochondrial (Plasmodium falciparum (isolate 3D7)) (UniProt Q08210)
# Sequence (Q08210 whole entry, looked up): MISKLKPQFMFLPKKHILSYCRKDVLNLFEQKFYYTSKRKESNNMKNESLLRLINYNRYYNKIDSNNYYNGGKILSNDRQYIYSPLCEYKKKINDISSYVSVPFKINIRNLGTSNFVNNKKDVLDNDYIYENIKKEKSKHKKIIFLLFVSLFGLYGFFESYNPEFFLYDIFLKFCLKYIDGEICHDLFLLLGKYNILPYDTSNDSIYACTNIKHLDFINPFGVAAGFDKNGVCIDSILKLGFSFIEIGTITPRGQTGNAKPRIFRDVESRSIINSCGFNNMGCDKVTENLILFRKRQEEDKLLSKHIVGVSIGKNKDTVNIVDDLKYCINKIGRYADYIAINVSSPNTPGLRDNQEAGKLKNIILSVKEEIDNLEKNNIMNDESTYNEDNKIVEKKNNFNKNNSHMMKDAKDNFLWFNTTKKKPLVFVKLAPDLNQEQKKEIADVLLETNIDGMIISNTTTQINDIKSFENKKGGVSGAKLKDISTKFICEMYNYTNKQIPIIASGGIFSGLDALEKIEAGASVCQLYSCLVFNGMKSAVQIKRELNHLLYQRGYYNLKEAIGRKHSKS
# method summary: inhibition of P. falciparum DHODH – biochemical, C-terminal His tag, absorbance 600 nm, primary screen (AID 1175);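 note: recombinant parasite enzyme with a five histidine tag at its C terminus; test concentration not given here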
# recorded conditions: PfDHODH enzyme, DCIP absorbance 600 nm; higher = more signal, called active from +8 up or from −8 down
Assign yes (1) to entries whose composite z-score meets or exceeds -0.09; assign no (0) to the rest.

Consider the following illustrative entries.
NC(=O)N1C(=O)C2C(C1=O)C1C=C(CCCO)C2C(C2CC2)N1Cc1cc2c(cc1Br)OCO2 (stereo not given) : no (0)
CC(C)[Si](C#CCCCC#N)(O[C@H](c1ccccc1)c1cn(Cc2cccc(Cl)c2)nn1)C(C)C : yes (1)
O=C1[C@H]2C=C(Br)[C@H](C[C@@H]2OCCCCCCO)[C@@]12CO2 : yes (1)

Would you say C=C(CCCC)C(=O)CC[C@H](OC(=O)c1cccnc1)c1ccc(OCCO)cc1 shows composite z-score at minimum -0.09?
no (0)

* * *

Assign composite z-score to each entry below.
# measurement target: Left-right determination factor 2 (Homo sapiens)
# method summary: small molecules binding LEFTY2 protein – biochemical, small-molecule microarray, 635 nm fluorescence scan, primary screen (AID 1110)
# recorded conditions: higher = more signal
Give bare numbers.

O=C1NC(=O)C2C1C=CC(C(O)C=Cc1ccc([N+](=O)[O-])cc1)N2Nc1ccc(Cl)cc1Cl (centres undefined) : 0.0391
Cc1ccc(S(=O)(=O)N2C[C@@H](C(=O)O)[C@H](Sc3ccccc3)C[C@H]2c2ccccc2)cc1 : 0.0026
CC(=O)Nc1cc(Br)ccc1C(=O)NCc1ccccc1 : -0.174
COC(=O)[C@]1(CCC(=O)OC(C)(C)C)N=C(c2ccc(OCCCO)cc2)O[C@@H]1c1ccccc1 : -1.45

Batch lookup, composite z-score per entry.
1. COc1ccc([Si](C)(C)[C@H]2[C@H](CCO)O[C@@]3(C(=O)N(Cc4ccccc4)c4ccc(N5CCCCC5=O)cc43)[C@@H]2C)cc1
2. C=CCC(OC(C)=O)[C@@H]1[C@@H](N(Cc2ccc(-c3cccc(C(F)(F)F)c3)o2)C(=O)c2cccc3ccccc23)c2cc(OCCCO)ccc2N1C(=O)Cc1ccc2ccccc2c1 (some centres undefined)

1. -0.161
2. -0.648

Batch lookup, composite z-score per entry.
1. C[N+](C)(C)CCCC[C@@H]1NC(=O)[C@H]2C[C@@H](C(=O)NCCCCCCNC(=O)CS)[C@@H](c3ccc(O)cc3)N2C1=O
2. C=CC[C@@]1(C(=O)N2CCCCC2)N=C(c2ccc(OCCCO)cc2)O[C@@H]1c1ccccc1N=[N+]=[N-]
3. CC1CC/C=C\[C@H]2OC34C=CCN(c5ccc6ccccc6c5)C(=O)[C@H]3N(CCO)C(=O)[C@@H]4C2C(=O)O1 (some centres undefined)

1: -1.4; 2: 0.227; 3: -2.09
